Could you please report measured EC50 for the items listed next?
test system: HIV-1 variant L100I; assay: Cytopathic cell killing assay, cross-resistance profile, infected MT-4 cells; type: cell-based; settings: Human immunodeficiency virus 1, MT4, Table 4; isolate L1001
In your response, the unit should come after the numeric value.

Consider the worked cases shown below.
>>> df
                                   compound  target_or_test_system  observable  result_value
0  Cc1cccc2c1nc(-c1c(F)cccc1F)n2Cc1c(F)cccc1F    HIV-1 variant L100I        EC50        0.3 µM
1  Fc1cccc(F)c1C1SCc2nc3ccccc3n21 (stereo not shown) [TZB, reference compound]    HIV-1 variant L100I        EC50       12.2 µM
2  Fc1cccc(F)c1Cn1c(-c2c(F)cccc2F)nc2ccccc21    HIV-1 variant L100I        EC50       1.36 µM

Moving on to the next compound.
// EC50 value for CC1Cn2c(=O)[nH]c3cccc(c32)CN1 (stereo not shown) [TIBO, reference compound] : 17.4 µM
